test system: UO-31 renal; test: NCI-60 one-dose screen, 48 h; conditions: 10 µM
About 83,000 compounds went through this panel and 20% of them were active in at least one assay; those are over-represented in the sample as a whole. The source made the active and inactive calls. Rule for the calls: active = growth percent below 10; inactive = the rest.
Tick one outcome: t (active), f (inactive)

Answered cases to consult:
• O=c1cc(-c2ccccc2)[nH]n1-c1nc2ccccc2[nH]1 = f
• CCOC(=O)N1C/C(=C/c2ccc(F)cc2)C(=O)/C(=C/c2ccc(F)cc2)C1 = t
• CC(C)=NNc1ncnc2c1ncn2C1OC(CO)C(O)C1O (stereo not given) = t
• C[N+](C)(C)c1ncnc2nc[nH]c12 = f
• N=C(N)c1ccc(-c2ccc(-c3cccs3)s2)s1 = t
• CCCCC/C=C/C(=O)CCc1ccc(O)c(OC)c1 = f

Outcome logged for "COC(=O)C(=C\c1ccc2c(c1)OCO2)/C(=C/c1ccc2c(c1)OCO2)C(=O)OC" in this assay:
f

Outcome logged for "N=C(N)c1ccc(-c2ccc(-c3cccs3)o2)cc1" in this assay:
f

Outcome logged for CC1CN(Cc2ccccc2)C(=O)NC1=O (stereo not given) in this assay:
f

Outcome logged for "O=C(Nc1cccc(-n2cc(-c3ccncc3)c(-c3cc(O)cc(Cl)c3)n2)c1)c1ccc(N2CCOCC2)c(C(F)(F)F)c1" in this assay:
t

Outcome logged for "Nc1nc(N)c(NC(=O)CNc2ccc(C(=O)O)cc2)c(N)n1" in this assay:
f

Outcome logged for CCCCCCCCCCCCCCCC(=O)OC1[C@@H](OC(=O)CCCCCCCCCCCCCCC)[C@@H](C(=O)N[C@@H](CCCCN)C(=O)OC)O[C@H]1n1cnc2c(=O)[nH]c(NC(=O)C(C)C)nc21 (stereo not given in full) in this assay:
f

Outcome logged for "CC(=O)[C@H]1CC[C@H]2[C@@H]3CCC4=CC(=O)C=C[C@]4(C)[C@H]3CC[C@]12C" in this assay:
f

Outcome logged for "CCC(=O)N1C/C(=C/c2ccc(OC)cc2)C(=O)/C(=C/c2ccc(OC)cc2)C1" in this assay:
t

Outcome logged for "O=C1/C(=C\c2ccccc2)CN(C(=O)c2ccccc2)C/C1=C\c1ccccc1" in this assay:
f

Outcome logged for "O=C(c1ccc(Cl)cc1Cl)N1CCOCC1" in this assay:
f

Outcome logged for "COc1cc(C(=C2O[C@@H]([C@H]3COC(C)(C)O3)[C@H]3OC(C)(C)O[C@@H]23)c2cc(OC)c(OC)c(OC)c2)cc(OC)c1OC" in this assay:
f

Outcome logged for "COc1ccc(-c2nc3sc(-c4ccc(OC)cc4)c(-c4ccc(OC)cc4)n3c2/C=C/c2ccc(C(C)C)cc2)cc1" in this assay:
f

Outcome logged for "COc1ccc(-c2nc3sc(C4CC4)nn3c2/C=C2/C(=O)Nc3ccc(OC)cc32)cc1" in this assay:
f

Outcome logged for "O=S(=O)(NCCCNc1nccc(-c2c(-c3ccc(F)cc3)nc3sccn23)n1)c1ccc(F)cc1" in this assay:
t

###

test system: IGROV1 ovarian; assay: NCI-60 one-dose screen, 48 h; conditions: 10 µM
The panel holds about 83,000 compounds, 20% with a hit somewhere; the sample as a whole holds those more often. Active and inactive are the calls of the source. The calls were made as follows: active = growth percent below 10; inactive = the rest.
Tick one outcome: True for active, False for inactive

Answered cases to consult:
* CSc1nn(-c2ccccc2)c2ncnc(Oc3ccccc3)c12 | False
* COC(=O)C1=NNC(=S)N(c2cc(C)[nH]n2)C(=O)C1 | False

Outcome logged for CC1CC(=O)OC(C)C1 (stereo unspecified) in this assay:
False

Outcome logged for "Nc1nc(N)c(NC(=O)CNc2ccc(C(=O)O)cc2)c(N)n1" in this assay:
False

Outcome logged for "COc1ccc(-c2nn(-c3cccc(NC(=O)Nc4ccccc4)c3)cc2-c2ccncc2)cc1Cl" in this assay:
False

Outcome logged for "Cc1ccc(Nc2cc(C)nc(NCCCNc3ccnc4cc(Cl)ccc34)n2)cc1" in this assay:
True

Outcome logged for "CCCCN(CCCC)c1cc(C(=O)CCCCCN)c2ccccc2n1" in this assay:
True

Outcome logged for "Oc1[nH]c2ccc(Cl)cc2c1/C=c1/ccc2c(c1)N=C(c1cccs1)N=2" in this assay:
False

Outcome logged for "O=C(C[P+](c1ccccc1)(c1ccccc1)c1ccccc1)C[P+](c1ccccc1)(c1ccccc1)c1ccccc1" in this assay:
True

Outcome logged for "O=C(O)c1ccc(Cl)cc1Nc1ccc(F)cc1" in this assay:
False

Outcome logged for "COc1ccc2c(c1)sc1nc(-c3ccccc3)c(-c3cccnc3)n12" in this assay:
False

###

test system: RXF 393 renal; assay: NCI-60 one-dose screen, 48 h (100 = growth as untreated, 0 = no growth, -100 = all killed); settings: 10 µM
This is part of a sample that, as a whole, favours compounds with a hit. Of some 83,000 tested, about 20% had one in any assay. Calls of active or inactive are those of the source. How the source made its calls: active means growth percent below 10; inactive means the rest.
Entries annotated with measured growth

// below: answered compounds
* C=C(Cl)[C@@](Cl)(CBr)CC[C@@H](Br)C(C)(C)Cl | -5.37% (active)
* COc1ccc(-c2nc3sc(-c4ccc(OC)cc4)c(-c4ccc(OC)cc4)n3c2/C=C/c2ccc(C(C)C)cc2)cc1 | 92.4% (inactive)

Which value of growth has been reported for "COc1cc(Cl)cc(-c2nn(-c3cccc(NC(=O)c4ccc(N5CCOCC5)c(C(F)(F)F)c4)c3)cc2-c2ccncc2)c1" in the records?
12.4% (inactive)

Which value of growth has been reported for "COc1ccc(-c2nc(-c3nc4ccc(OC)cc4[nH]3)cc3c2[nH]c2ccccc23)cc1" in the records?
43% (inactive)

Which value of growth has been reported for "O=c1[nH]c(-c2ccc(Cl)cc2)nc2sc3c(c12)CCCC3" in the records?
89.1% (inactive)

###

system: NCI-H322M lung; test: NCI-60 one-dose screen, 48 h (100 = growth as untreated, 0 = no growth, -100 = all killed); conditions: 10 µM
About 83,000 compounds went through this panel and 20% of them were active in at least one assay; those are over-represented in the sample as a whole. Active and inactive are the calls of the source. Rule for the calls: active = growth percent below 10; inactive = the rest.
PROPERTY LABEL: growth

// below: answered molecules
• Cc1ccc(C(=O)N2C/C(=C/c3ccc(F)cc3)C(=O)/C(=C/c3ccc(F)cc3)C2)cc1 = 90.6% (inactive)
• CCN1CCC2(CC1)OC(c1ccccc1)C(c1ccccc1)O2 (stereo not given) = 133% (inactive)

What growth appears in the records for this molecule with NCI-H322M lung? CCN(CC)CCCC(C)Nc1nc(-c2ccc(OC)cc2)nc2cc(Cl)ccc12 (stereo not given)
65.4% (inactive)

What growth appears in the records for this molecule with NCI-H322M lung? "CCN(CCCCCCN1CC(=O)N(CCCCCCN(CC)Cc2ccccc2OC)CC1=O)Cc1ccccc1OC"
96.5% (inactive)

What growth appears in the records for this molecule with NCI-H322M lung? O=C(NC(Cc1ccc(O)cc1)C(=O)N=Nc1c(O)[nH]c2ccccc12)c1ccccc1 (stereo not given)
102% (inactive)

###

tested on: SNB-19 CNS; experiment: NCI-60 one-dose screen, 48 h (100 = growth as untreated, 0 = no growth, -100 = all killed); details: 10 µM
The panel holds about 83,000 compounds, 20% with a hit somewhere; the sample as a whole holds those more often.
PROPERTY LABEL: growth (%)
Use % as the unit, but write only the number.

// below: answered molecules
- Oc1[nH]c2cc(Cl)ccc2c1/C=c1/ccc2c(c1)N=C(c1cc(F)cc(F)c1)N=2: 64.5
- CC1(O)CCC2CC3OC3(C)CCC3OC3(C)CCC1C2(C)C (stereo unspecified): 89.8
- COc1ccc2c(c1)O/C(=C\c1ncc([N+](=O)[O-])n1C)C2=O: 2.04
- CCCCCCCCCCCCCCCCN(C(C)c1ccccc1)S(=O)(=O)c1ccc(OC)c(N)c1 (stereo unspecified): 120
- O=C1OCC2=C1C(c1cccc(Br)c1)c1cc3c(cc1N2CCO)CCC3 (stereo unspecified): 28.8

Which value of growth has been reported for CCCC1(CC(=O)O)OCCc2c1[nH]c1ccccc21 (stereo unspecified) in the records?
128

Which value of growth has been reported for "Cc1ccc(S(=O)(=O)OCCN(CCOS(=O)(=O)c2ccc(C)cc2)c2c[nH]c(=O)[nH]c2=O)cc1" in the records?
100

Which value of growth has been reported for "CCCCCCCNc1nc(C=O)ncc1-c1ccc(C(F)(F)F)cc1" in the records?
91.1

Which value of growth has been reported for "CN(C)CCN1C(=O)c2cccc3c(-c4ccc5ncn(C6CCCCC6)c5c4)ccc(c23)C1=O" in the records?
23.3

Which value of growth has been reported for "CSc1nn(-c2ccccc2)c2ncnc(Oc3ccccc3)c12" in the records?
93.9

Which value of growth has been reported for "COC(=O)c1ccc(=O)oc1" in the records?
103

Which value of growth has been reported for "CNc1ccc(CSc2ccc(C)cc2)cc1" in the records?
93.3
